Test system: MDA-MB-435
Please answer using one outcome listed in yes (active), no (inactive)

Record request — test call for CC1CN=C(c2cccc(-c3ccc(-c4ccccc4)o3)c2)N1 (stereo not given)
no

Record request — test call for `CCN1CCN(Cc2ccc(NC(=O)c3nc4ccc5[nH]ncc5c4c4c3CCCC4)cc2C(F)(F)F)CC1`
no

Record request — test call for Cc1cc(-c2ccc(C3C(C#N)=C(N)Oc4c3c(=O)oc3ccccc43)cc2)cnc1F (stereo not given)
no

Record request — test call for `Nc1cc2ccccc2c(O)c1O`
no

Record request — test call for `O=c1c2[nH]ccc2nc2n1CCS2`
no

Record request — test call for `O=C(Cc1ccc(OCc2ccccc2)cc1)NCc1ccc2c(c1)OCO2`
no

Record request — test call for `COC(=O)[C@]12CC[C@@H](C(=O)/C=C/c3cccnc3)[C@@H]1[C@H]1CC[C@@H]3[C@@]4(C)C/C(=C/c5cccnc5)C(=O)C(C)(C)[C@@H]4CC[C@@]3(C)[C@]1(C)CC2`
yes

Record request — test call for `CCN1C2=C(SC(=S)C1=C1SC(C(=O)OC)=C(C(=O)OC)S1)SC(=Nc1ccc(OC)cc1)C2=O`
no

Record request — test call for `COC(=O)CCC1=C(C)C(C)=N/C1=C\c1[nH]c(-c2ccc[nH]2)cc1OC`
no

Record request — test call for `CNC[C@@H](NC(=O)c1ccc(-c2nc([C@H]3CC[C@H](O)[C@@H](F)C3)cnc2N)cc1F)c1cc(F)cc(Br)c1`
no

###

System: TK-10 renal
Test summary: NCI tumour cell line growth inhibition, 48 h
Measure name: TGI

I looked up CC(=O)OCC1OC(n2c(-c3ccc(Cl)cc3)cc(-c3ccccc3)c(C#N)c2=S)C(OC(C)=O)C(OC(C)=O)C1OC(C)=O (stereo not drawn) and its TGI for TK-10 renal was 42.2 µM

I looked up `O=C(C1CC1)N1CC[C@@H](Cc2n[nH]c(=O)n2-c2ccc(-c3ccc4occc4c3)cc2)C1` and its TGI for TK-10 renal was > 100 µM

I looked up `O=C(O)c1ccccc1/C=C1\Cc2ccccc2C1=O` and its TGI for TK-10 renal was > 100 µM

I looked up `COc1ccc(OC)c(CCc2cc(OC)ccc2OC)c1` and its TGI for TK-10 renal was > 10 µM

I looked up `CC(=O)O[C@H]1C(=O)[C@@]2(C)[C@H]([C@H](OC(=O)C3CCCCC3)[C@]3(O)C[C@H](OC(=O)[C@H](O)[C@@H](NC(=O)OC(C)(C)C)c4ccccc4)C(C)=C1C3(C)C)[C@]1(OC(C)=O)CO[C@@H]1C[C@@H]2O` and its TGI for TK-10 renal was > 10.1 µM

I looked up `Cc1n(Cc2ccc3ccccc3c2)c2ccccc2[n+]1Cc1ccc2ccccc2c1` and its TGI for TK-10 renal was 3.03 µM

I looked up `CCOC(=O)NC(C(F)(F)F)(C(F)(F)F)P(=O)(OCC(C)C)OCC(C)C` and its TGI for TK-10 renal was 65.8 µM

I looked up `CCCCC(=O)Nc1ccc2cc(C(=O)OC)c(Cl)nc2n1` and its TGI for TK-10 renal was > 100 µM

###

Test system: MDA-MB-435
Test summary: NCI tumour cell line growth inhibition, 48 h
Where a SMILES comes first, the peptide text is derived from it. [ ]: non-standard residue; d: D form. The star is where a group is joined. ξ: configuration not given here. NMeF = CN[C@@H](Cc1ccccc1)C(=O)O; NMeN = CN[C@@H](CC(N)=O)C(=O)O; NMeV = CN[C@H](C(=O)O)C(C)C; ξNMeV = CNC(C(=O)O)C(C)C; Boc = CC(C)(C)OC(=O)*; ξNMeA = CNC(C)C(=O)O; ξV = CC(C)C(N)C(=O)O
Measure name: TGI (µM)
Please reply with the bare figure in µM and do not write the unit itself.

Sure, the documented TGI for COC(=O)C(C)N(C)C(=O)[C@H](CC(N)=O)N(C)C(=O)[C@@H]1CCCN1C(=O)[C@H](C(C)C)N(C)C(=O)C(C(C)C)N(C)C(=O)[C@H](Cc1ccccc1)N(C)C(=O)C(NC(=O)OC(C)(C)C)C(C)C (some centres not stated) (Boc-[ξV][NMeF][ξNMeV][NMeV]P[NMeN][ξNMeA]-OMe) is 50

Sure, the documented TGI for `N=C(N)c1ccc(-c2ccc(-c3cccs3)o2)cc1` is 3.39

Sure, the documented TGI for `C=C(C)[C@@H]1CC[C@]2(C)[C@H](CC[C@@H]3[C@@H]([C@@](C)(O)CCC=C(C)C)CC[C@]32C)[C@@]1(C)CCC(=O)N1CCN(C)CC1` is 26.5

Sure, the documented TGI for `O=C(Cc1ccc(OCc2ccccc2)cc1)NCc1ccc2c(c1)OCO2` is 5.93

Sure, the documented TGI for CCCCCCCCCOc1c(OC)cc(C2CC(=O)Nc3c2c(C)nn3-c2nc3ccccc3[nH]2)cc1OC (configuration not stated) is 1.99

###

Test system: IGROV1 ovarian
Test summary: NCI tumour cell line growth inhibition, 48 h
Measure name: TGI (µM)
Please reply with the bare figure in µM and do not write the unit itself.

Sure, the documented TGI for `Cc1ccc(S(=O)(=O)/N=C(\NO)Nc2ccc(Cl)c(Cl)c2)cc1` is 31.3

Sure, the documented TGI for CC(C)=C[C@@H]1C[C@H](C)[C@H]2CC[C@H](C)c3c(O)c(OC4OCC(O)C(O)C4O)c(C)c1c32 (stereo partly specified) is 24.3

Sure, the documented TGI for `O=C(Nc1ccc(-n2ccc3c(NC(=O)c4ccccc4)ncnc32)cc1)c1ccc(Cl)c(C(F)(F)F)c1` is 31

###

Test system: NCI-H522 lung
Test summary: NCI tumour cell line growth inhibition, 48 h; in the data active = GI50 below about 0.43 µM; inactive = the rest
Please answer using one outcome listed in 1 (yes) = active, 0 (no) = inactive

Record request — test call for `COc1ccc(-c2cn(-c3cccc(C(=O)/C=C/c4cc(OC)c(OC)c(OC)c4)c3)c(=O)[nH]2)cc1`
0 (no)

Record request — test call for CCC(C)C1=NC(C(=O)N/C=C\c2c[nH]c3cc(Br)c(Br)cc23)(C(C)C)NC1=O (stereo not given)
0 (no)

Record request — test call for `c1ccc(-c2nc([P+](c3ccccc3)(c3ccccc3)c3ccccc3)c(N3CCOCC3)o2)cc1`
0 (no)

Record request — test call for `CCOC(=O)C#Cc1c(C(=O)OCC)nnn1Cc1ccc(C(F)(F)F)cc1`
0 (no)

Record request — test call for `COc1ccc2c(c1)C(=O)c1c-2c(=O)n(CCCCCCC(=O)NO)c2ccccc12`
1 (yes)

###

Test system: SN12C renal
Test summary: NCI tumour cell line growth inhibition, 48 h
Measure name: TGI

Sure, the documented TGI for `CNc1nc(N)cc(=O)[nH]1` is > 100 µM

Sure, the documented TGI for `C/C(=C1/N=C(c2cc([N+](=O)[O-])ccc2Cl)N(c2ccc(Br)cc2)C1=O)c1cc2ccccc2oc1=O` is > 100 µM

Sure, the documented TGI for CC(=O)c1cccc(NC(=O)C(=O)C(C(=O)NN)c2ccccc2)c1 (stereo not given) is > 100 µM

Sure, the documented TGI for `c1ccc(-c2nc([P+](c3ccccc3)(c3ccccc3)c3ccccc3)c(N3CCOCC3)o2)cc1` is 9.15 µM

Sure, the documented TGI for CC(=O)OCC12C(OC(C)=O)C(=O)C3C(OC(C)=O)C14OC3(C)COC(=O)c1cccnc1C(C)C(C)C(=O)OC(C(OC(C)=O)C2OC(C)=O)C4(C)O (stereo not given) is > 100 µM

###

Please respond with reported TGI for every item in the list.
Tested on: SNB-19 CNS
Test summary: NCI tumour cell line growth inhibition, 48 h
Please reply with the bare figure in µM and do not write the unit itself.

I looked up `Cc1n(Cc2ccc3ccccc3c2)c2ccccc2[n+]1Cc1ccc2ccccc2c1` and its TGI for SNB-19 CNS was 2.77

I looked up `COC(=O)[C@]12CC[C@@H](C(=O)/C=C/c3cccnc3)[C@@H]1[C@H]1CC[C@@H]3[C@@]4(C)C/C(=C/c5cccnc5)C(=O)C(C)(C)[C@@H]4CC[C@@]3(C)[C@]1(C)CC2` and its TGI for SNB-19 CNS was 1.97

I looked up `O=C(O)c1c[nH]c2cc(OCc3ccccc3)ccc2c1=O` and its TGI for SNB-19 CNS was 32.4

I looked up `COC(=O)[C@]1(C)CCC[C@]2(C)[C@H]3CC[C@]4(C(C)C)OO[C@@H](O4)[C@]34O[C@@H]4C[C@H]21` and its TGI for SNB-19 CNS was 24.5

###

Tested on: UACC-62 melanoma
Test summary: NCI tumour cell line growth inhibition, 48 h
Please respond with reported TGI for every item in the list.

Sure, the documented TGI for `Cc1cc(NS(=O)(=O)c2ccc(NC(=O)c3ccc(Cl)c4c(Nc5ccc(S(N)(=O)=O)cc5)c5ccccc5nc34)cc2)no1` is 25.2 µM

Sure, the documented TGI for `O=C1CCC[C@]2(CCCC(=O)N2)C1` is > 100 µM

Sure, the documented TGI for CC(=O)OCC12C(OC(C)=O)C(=O)C3C(OC(C)=O)C14OC3(C)COC(=O)c1cccnc1C(C)C(C)C(=O)OC(C(OC(C)=O)C2OC(C)=O)C4(C)O (stereo not drawn) is > 100 µM

Sure, the documented TGI for `COc1ccc2c(c1)C(=O)c1c-2c(=O)n(CCCCCCC(=O)NO)c2ccccc12` is 1.38 µM

Sure, the documented TGI for NC(Cc1cnc(I)[nH]1)C(=O)O (stereo not drawn) is > 100 µM

Sure, the documented TGI for `O=[N+]([O-])c1ccc2c3c1[C@H]1O[C@H]1c1cccc(c1-3)[C@@H]1O[C@H]21` is 3.69 µM

Sure, the documented TGI for CC(=O)O[C@H](C[C@@H](C)[C@H]1C(=O)[C@H](O)[C@@]2(C)C3CC[C@H]4C(C)(C)[C@@H](OC5OCC(O)C(O)C5O)CC[C@@]45C[C@@]35CC[C@]12C)[C@@H]1OC1(C)C (stereo partly drawn) is 27 µM

Sure, the documented TGI for CC1(C)C2CCC(=O)C1C(OCc1ccccc1)C2 (stereo not drawn) is > 100 µM
